Measured values drawn from PubChem BioAssay (NCI) for this set.

Form field: TGI (one value per entry).
System: U251 CNS
Experiment summary: NCI tumour cell line growth inhibition, 48 h
Where a SMILES comes first, the peptide text is derived from it. The star is where a group is joined. Boc = CC(C)(C)OC(=O)*

- Compound: "Cc1cc(N(CCC#N)CCC#N)ccc1/C=C\\C(=O)Nc1ccccc1"
  TGI: "> 100 µM"
- Compound: "C#C[C@]1(O)CC[C@H]2[C@@H]3CCC4=CC(=NCCOC(=O)c5cccc6cc7ccccc7nc56)CC[C@@H]4[C@H]3CC[C@@]21C"
  TGI: "25.2 µM"
- Compound: "N#C/C(=C\\c1ccccc1)c1nc(-c2cc3ccccc3oc2=O)cs1"
  TGI: "> 100 µM"
- Compound: "Cc1cc2[nH]c(Cl)c(/C=C3\\C(=O)Nc4ccccc43)c2cc1O"
  TGI: "14.4 µM"
- Compound: "CC(C)(C)OC(=O)NC(Cc1ccc(O)cc1)C(=O)NC(CCCCN)C(=O)O (stereo not drawn) (Boc-Tyr-Lys-OH; configuration not given here)"
  TGI: "43.5 µM"
- Compound: "O=C1CCCCCCCCCCC(=O)N2CCOCCOCCN1Cc1cccc(n1)C2"
  TGI: "> 100 µM"
- Compound: "CCCCc1ccc(Nc2cc(=O)n(C)c(=O)[nH]2)cc1"
  TGI: "> 100 µM"
- Compound: "COC(=O)[C@H](NC(=O)OC(C)(C)C)[C@H]1COC(C)(C)O1"
  TGI: "> 100 µM"
- Compound: "CC(=O)O[C@H]1CCC2(C)C(=CCC3C2CCC2(C)/C(=N/OC(=O)c4ccc(N(CCCl)CCCl)cc4)CCC32)C1 (some centres undefined)"
  TGI: "> 28.8 µM"

----------
Each entry below lists one item and its recorded log10 of TGI value.
System: IGROV1 ovarian
Experiment summary: NCI tumour cell line growth inhibition, 48 h
Measured metric: log10 of TGI (log10 of the value in µM)

- Compound: "[Cl-].[Cl-].[Cl-].[O-]c1cccc2cccnc12.[O-]c1cccc2cccnc12.[O]=[Mo]"
  Target entity: "IGROV1 ovarian"
  Measured metric: "log10 of TGI"
  Observed result: 1.54
- Compound: "Nc1nc2c(c3ncccc13)C(c1cccc(Br)c1)Cc1ncccc1-2 (stereo unspecified)"
  Target entity: "IGROV1 ovarian"
  Measured metric: "log10 of TGI"
  Observed result: 1.54
- Compound: "O=[N+]([O-])c1ccccc1S(=O)(=O)c1cc(O)cc2c1NCCC2"
  Target entity: "IGROV1 ovarian"
  Measured metric: "log10 of TGI"
  Observed result: 1.49
- Compound: "Cc1cc2[nH]c(Cl)c(/C=C3\\C(=O)Nc4ccccc43)c2cc1O"
  Target entity: "IGROV1 ovarian"
  Measured metric: "log10 of TGI"
  Observed result: 1.04
- Compound: "CCCCN1CCN(c2ccc3nc(-c4ccc5nc(-c6ccc(OC)c(OC)c6)[nH]c5c4)[nH]c3c2)CC1"
  Target entity: "IGROV1 ovarian"
  Measured metric: "log10 of TGI"
  Observed result: 0.53

----------
Tested on: OVCAR-3 ovarian
Experiment summary: NCI tumour cell line growth inhibition, 48 h

- Molecule: "O=C(CC1C(=O)Nc2ccccc2S1=O)Nc1ccccc1 (stereo unspecified)"
  Target entity: "OVCAR-3 ovarian"
  TGI: "> 100 µM"
- Molecule: "CC1CC2OC(=O)CC2C[C@@H]1O[Si](C)(C)C(C)(C)C (stereo partly specified)"
  Target entity: "OVCAR-3 ovarian"
  TGI: "> 100 µM"
- Molecule: "O=c1c2ccc3cccc4c(=O)c5ccc6cccc1c6c5-c2c34"
  Target entity: "OVCAR-3 ovarian"
  TGI: "> 50 µM"
- Molecule: "O=c1cc(-c2ccccc2)oc2cc(Oc3nnnn3-c3ccccc3)ccc12"
  Target entity: "OVCAR-3 ovarian"
  TGI: "> 100 µM"
- Molecule: "COc1cc(S(=O)(=O)Nc2nc(-c3ccc(N=Cc4cccs4)cc3)cs2)ccc1Cl"
  Target entity: "OVCAR-3 ovarian"
  TGI: "78.6 µM"
- Molecule: "O=c1[nH]c(=O)n(C2CC(O)C(CO)O2)c2nc3cc4ccccc4cc3nc12 (stereo unspecified)"
  Target entity: "OVCAR-3 ovarian"
  TGI: "> 100 µM"

----------
Each item that follows carries a reported TGI.
System: HL-60(TB) leukemia
Experiment summary: NCI tumour cell line growth inhibition, 48 h
Residues, ends and D or L forms follow the SMILES beside them. *: point of attachment. Boc = CC(C)(C)OC(=O)*

- Molecule: "CC1=NCCc2cc3[nH]c4ccccc4c3cc21"
  TGI: "37.6 µM"
- Molecule: "COc1nc(N)c(C#N)c(C#N)c1C#N"
  TGI: "> 10 µM"
- Molecule: "COC(=O)CNC(=O)C(Cc1ccccc1)NC(=O)C(Cc1ccccc1)NC(=O)OC(C)(C)C (stereo not drawn) (Boc-Phe-Phe-Gly-OMe; configuration not given here)"
  TGI: "54.8 µg/mL"
- Molecule: "COc1ccc(C2C(Cl)C(=O)N2NC(=O)c2ccc(N)cc2)cc1 (stereo not given)"
  TGI: "> 100 µM"
- Molecule: "C=C1OC(=O)[C@]2([C@@H](/C=C/C)C=CC(=O)[C@H]2O)[C@@H]1O"
  TGI: "> 100 µM"
- Molecule: "CC(C)c1cc(Cl)nc(Cl)n1"
  TGI: "> 100 µM"
- Molecule: "CCN1CCN(c2cc(C)nc(N(CCNc3ccnc4cc(Cl)ccc34)Cc3ccc4c(c3)OCO4)n2)CC1"
  TGI: "3.84 µM"
- Molecule: "CN(C)Cc1cc(N=Nc2ccccc2)ccc1O"
  TGI: "> 100 µM"
- Molecule: "O=C(O)c1cc(C(=O)O)nc(C(=O)O)c1"
  TGI: "> 100 µM"
- Molecule: "O=C(Nc1ccc(CN2CCOCC2)cc1)c1ccc(-c2cc(Cl)ccc2Cl)o1"
  TGI: "20.9 µM"

----------
System: NCI-H226 lung
Experiment summary: NCI tumour cell line growth inhibition, 48 h; in the data active = GI50 below about 0.43 µM; inactive = the rest
Classes used: active, inactive

- Smiles entry: "O=c1c2cc(F)ccc2sc2c(N3CCNCC3)nc3ccccc3c12"
  Label value: "inactive"
- Smiles entry: "O=C(N/N=C/c1ccccc1O)c1ccccc1O"
  Label value: "inactive"
- Smiles entry: "COc1cc(NCCCCCN=C(N)N)c2ncccc2c1"
  Label value: "inactive"
- Smiles entry: "Fc1cnc(NC2CC2)nc1-c1cnc2ccc(N3CCOCC3)cn12"
  Label value: "active"

----------
Test system: SK-OV-3 ovarian
Experiment summary: NCI tumour cell line growth inhibition, 48 h; in the data active means GI50 below about 0.43 µM; inactive means the rest
Outcomes: active, inactive

- Molecule: "CCc1ccc(CNCC(O)c2ccccc2)cc1 (stereo not given)"
  Target entity: "SK-OV-3 ovarian"
  Label value: "inactive"
- Molecule: "O=C(Nc1ccc(CN2CCOCC2)cc1)c1ccc(-c2cc(Cl)ccc2Cl)o1"
  Target entity: "SK-OV-3 ovarian"
  Label value: "inactive"
- Molecule: "O=C(O)CNC(=O)C(CS)Cc1ccccc1 (stereo not given)"
  Target entity: "SK-OV-3 ovarian"
  Label value: "inactive"
- Molecule: "CCOC(=O)[C@H]1O[C@@H]1C(=O)N[C@@H](CC(C)C)C(=O)NCCc1ccc(O)cc1"
  Target entity: "SK-OV-3 ovarian"
  Label value: "inactive"
- Molecule: "O=C(NCc1ccc(Cl)cc1Cl)c1ccc(NC2=C(Cl)C(=O)N(Cc3ccccc3)C2=O)cc1"
  Target entity: "SK-OV-3 ovarian"
  Label value: "inactive"
- Molecule: "O=C1C=CC(=O)N1C1CCCCCCCCCCC1"
  Target entity: "SK-OV-3 ovarian"
  Label value: "inactive"
- Molecule: "COc1ccc2[nH]c(-c3ccccc3)c(/C=C(\\C#N)S(=O)(=O)c3ccccc3)c2c1"
  Target entity: "SK-OV-3 ovarian"
  Label value: "inactive"
- Molecule: "N=C(N)N=Nc1ccc(NN=C(N)N)c2c1ncc1c2nc2sccn21"
  Target entity: "SK-OV-3 ovarian"
  Label value: "inactive"
- Molecule: "Fc1cnc(NC2CC2)nc1-c1cnc2ccc(N3CCOCC3)cn12"
  Target entity: "SK-OV-3 ovarian"
  Label value: "inactive"
- Molecule: "COc1cc2ncn(-c3cc(O[C@H](C)c4ccccc4Cl)c(C(N)=O)s3)c2cc1OC"
  Target entity: "SK-OV-3 ovarian"
  Label value: "active"

----------
Test system: NCI-H522 lung
Experiment summary: NCI tumour cell line growth inhibition, 48 h
Where a SMILES comes first, the peptide text is derived from it. The star is where a group is joined. Boc = CC(C)(C)OC(=O)*
Measured metric: log10(TGI) (log10 of the value in µM)

- Compound: "CC(C)(C)OC(=O)NC(Cc1ccc(O)cc1)C(=O)NC(CCCCN)C(=O)O (stereo not drawn) (Boc-Tyr-Lys-OH; configuration not given here)"
  Target entity: "NCI-H522 lung"
  Measured metric: "log10(TGI)"
  Observed result: 1.42
- Compound: "O=C1Nc2cc(Cl)ccc2/C1=C\\c1c(-c2ccc(F)cc2)nc2ccccn12"
  Target entity: "NCI-H522 lung"
  Measured metric: "log10(TGI)"
  Observed result: -0.04
- Compound: "CSc1ncc2c(n1)-c1ccccc1OC2N1CCCCC1 (stereo unspecified)"
  Target entity: "NCI-H522 lung"
  Measured metric: "log10(TGI)"
  Observed result: 1.63
- Compound: "Cc1ccc([N+](=O)[O-])cc1S(=O)(=O)Nc1ccc(C(=O)/C=C/c2cccs2)cc1"
  Target entity: "NCI-H522 lung"
  Measured metric: "log10(TGI)"
  Observed result: 1.71
- Compound: "CC(C)(CN1CCCCC1)C(/C=C/c1ccc(Cl)c(Cl)c1)=N\\NC(=O)N/N=C(/C=C/c1ccc(Cl)c(Cl)c1)C(C)(C)CN1CCCCC1"
  Target entity: "NCI-H522 lung"
  Measured metric: "log10(TGI)"
  Observed result: 0.55
- Compound: "ClCc1ccc(-c2ccc(Cn3cnc4nc(Cl)nc(Cl)c43)cc2)cc1"
  Target entity: "NCI-H522 lung"
  Measured metric: "log10(TGI)"
  Observed result: 1.56
- Compound: "COc1ccc2[nH]c(S(=O)(=O)N3CC(CCl)c4ccc(N)cc43)cc2c1 (stereo unspecified)"
  Target entity: "NCI-H522 lung"
  Measured metric: "log10(TGI)"
  Observed result: 1.00
- Compound: "C(#Cc1cnccn1)/C=C\\C#Cc1cnccn1"
  Target entity: "NCI-H522 lung"
  Measured metric: "log10(TGI)"
  Observed result: 1.26
- Compound: "COc1cccc(/C=C2\\CCC(CCN(C)C)(C3=CCCC3)C2=O)c1 (stereo unspecified)"
  Target entity: "NCI-H522 lung"
  Measured metric: "log10(TGI)"
  Observed result: 1.43
- Compound: "CCOC(=O)C1(O)C(=O)C2=C3C(=O)OC(C4OC(=O)c5c(c(O)c(O)c(O)c5C31)-c1c(cc(O)c(O)c1O)C(=O)OC1COC(=O)c3cc(O)c(O)c(O)c3-c3c(cc(O)c(O)c3O)C(=O)OC14)[C@@H]2O (stereo partly specified)"
  Target entity: "NCI-H522 lung"
  Measured metric: "log10(TGI)"
  Observed result: 1.73
